The values you see were collected from patent US11759462B2.

Target: Recombinant human TPH1 (MBP tagged) (Homo sapiens, UniProt P17752)
Construct: cloning full length human TPH1 cDNA in to a bacterial pMAL-c5E expression vector; made in house; host or cells: E. coli BL21 (DE3)
Sequence (P17752 1-444): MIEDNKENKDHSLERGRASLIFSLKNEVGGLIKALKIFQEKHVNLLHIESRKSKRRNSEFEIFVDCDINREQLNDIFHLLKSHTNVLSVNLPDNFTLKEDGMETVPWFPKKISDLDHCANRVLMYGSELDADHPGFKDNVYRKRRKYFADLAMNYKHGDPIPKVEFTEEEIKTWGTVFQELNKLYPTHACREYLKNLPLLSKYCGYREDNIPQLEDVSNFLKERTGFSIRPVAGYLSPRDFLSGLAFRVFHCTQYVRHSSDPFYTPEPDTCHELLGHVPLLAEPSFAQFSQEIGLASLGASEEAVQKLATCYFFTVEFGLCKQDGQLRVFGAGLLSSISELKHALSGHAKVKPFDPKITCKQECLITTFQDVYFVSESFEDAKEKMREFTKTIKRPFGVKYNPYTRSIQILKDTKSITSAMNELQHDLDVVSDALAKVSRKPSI
Experiment: TPH1 in vitro inhibition assay (kinetic fluorescence)
Format: biochemical
Conditions: read-out: TPH1 Range (TPH1 inhibition IC50)
Measured IC50 of individual entries

These recorded examples may help you get a feel for the data.
compound	recorded metric	obs value
Cc1ccn(-c2cc(-c3ccc(F)c(F)c3)ccc2[C@@H](Oc2cc(N3CCC4(CC3)CN[C@H](C(=O)O)C4)nc(N)n2)C(F)(F)F)n1 [Example 1au]	IC50	50 to 300 nM
CCCOc1ccc(-c2ccc([C@@H](Oc3cc(N4CCC5(CC4)CN[C@H](C(=O)O)C5)nc(N)n3)C(F)(F)F)c(-n3ccc(C)n3)c2)cc1	IC50	< 50 nM
Nc1nc(NCC23CC4CC(CC(C4)C2)C3)cc(N2CCC3(CC2)CN[C@H](C(=O)O)C3)n1 [Example 41c]	IC50	3000 to 10000 nM
COc1cc(-c2ccc([C@@H](Oc3cc(N4CCC5(CC4)CN[C@H](C(=O)O)C5)nc(N)n3)C(F)(F)F)c(-n3ccc(C)n3)c2)ccn1	IC50	< 50 nM
Cc1ccn(-c2cc(-c3cccc(C(C)(C)C)c3)ccc2[C@@H](Oc2cc(N3CCC4(CC3)CN[C@H](C(=O)O)C4)nc(N)n2)C(F)(F)F)n1	IC50	50 to 300 nM

// query Find the recorded IC50 belonging to CCc1cc(-c2ccc3ncc(F)cc3c2)ccc1[C@@H](Oc1cc(N2CCC3(CC2)CN[C@H](C(=O)O)C3)nc(N)n1)C(F)(F)F [Example 59d] and report it.
// result 50 to 300 nM

// query Find the recorded IC50 belonging to COc1ccc(-c2ccc([C@@H](Oc3cc(N4CCC5(CC4)CN[C@H](C(=O)O)C5)nc(C)n3)C(F)(F)F)c(-n3ccc(C)n3)c2)cc1F [Example 29l] and report it.
// result < 50 nM

// query Find the recorded IC50 belonging to Cc1ccn(-c2cc(-c3ccc(C(C)(C)C)cc3)ccc2[C@@H](Oc2cc(N3CCC4(CC3)CN[C@H](C(=O)O)C4)nc(N)n2)C(F)(F)F)n1 and report it.
// result < 50 nM

// query Find the recorded IC50 belonging to CC(C)c1ccc(-c2ccc([C@@H](Oc3cc(N4CCC5(CC4)CN[C@H](C(=O)O)C5)nc(N)n3)C(F)(F)F)cc2)cc1 [Example 55cj] and report it.
// result 300 to 3000 nM
